assayDetails: NCI Yeast Anticancer Drug Screen. Data for the rad50 strain (AID 155)
testContext: S. cerevisiae rad50 strain growth inhibition; at 33.0 µM; stronger effect = higher value
The panel holds about 79,000 compounds, 15% with a hit somewhere; the sample as a whole holds those more often.
Lab note: compare growth inhibition against 10%. Equal or greater, write rule met. Smaller, write rule not met.

| compound | classAssignment |
| --- | --- |
| COC1/C=C\C=C(/C)C(=O)NC2=CC(=O)C(=O)C(=C2O)CC(C)CC(OC)C(O)C(C)/C=C(\C)C1OC(N)=O (stereo unspecified) | rule met |

# evaluate next
Could you verify whether the entry Cc1c(C(=O)/C=C/c2ccccc2[N+](=O)[O-])[n+](=O)c2ccccc2n1[O-] shows growth inhibition of no less than 10%?
rule met
